Values compiled from the supplement of paper PMC12764529.

Assign folding stability dG unfold to each entry below.
# measurement_notes: folding stability dG unfold from chymotrypsin proteolysis; higher = more stable
Write it as a number; the unit kcal/mol goes unstated.

Please supply the value of reported folding stability dG unfold for the item SAGGSAGGSAGGMKITLKVKKPDGTTTTITVDIDESKIEEIKEEIAPKGYEVEEAEIELESAGGSAGGSAGG [r7_159_JUSTAS] 0.638

Look up and report measured folding stability dG unfold for this entry: SKEVKITIEVKEVNGKLYVVVKVEVNGKEETLVFKSLEEAKNAIAKKLGLPKEKIKIKKVEVYKVSKKDLSA [r9_909_TrROS_Hall] 0.869

Please report the measured folding stability dG unfold for SAGGPSVDIDPRLNEDGTPYVLATLHIVPVHSDGSSSSADIPVVFDSLDDLLAFVKAISPGSAKVSLSAGGS [r16_652_TrMRF] 1.27

Output folding stability dG unfold of SAGGSTLEEIKAAVIKAAEAGEKEAEIEAPLPDGGKLRILKGGVIEFIPEDGVPKRLKISVSEIKVSAGGSA [r2_97_TrMRF] 0.451

====

# measurement_notes: folding stability dG unfold (combined trypsin and chymotrypsin); higher = more stable
Please provide measured folding stability dG unfold for the entries that follow.
# number only, unit kcal/mol dropped from output

Given SAGGMFLRIEPEDGSRFEIPLNDPSLPLEVVVGLVSKYMDGPVKLKLTLVLPEEEVEYEYEIPLEKKSAGGS [r16_216_TrMRF] , respond with its folding stability dG unfold. 1.98

Give reported folding stability dG unfold value for SAMKPFPAKEAIEQILEEMEDMPLPPGQEEVEFQIRLPDDGAPVQISIERNPGKWKIEIYVGNKPIWITSAG [r14_199_TrROS] 2.05

Item SAGGSEKVKIEIPFRHPEDGEPIFPVRIEYEKPPNGDYKLDIEIDNFPPGMKPSPAAKDAIEEFIKSAGGSA [r2_7_TrROS] : provide folding stability dG unfold 0.956

Specify measured folding stability dG unfold for SAGSMLFDPNGVLREVSVTPDPSTGTTVTTTLVQWPVDDGNGNSVLERITTTTSPSGTVTTSTEVRPAPSAG [r5_303_JUSTAS] . 0.138

====

# measurement_notes: folding stability dG unfold from chymotrypsin proteolysis; higher = more stable
observation_type: folding stability dG unfold
// unit must come after the numeric part

Please list folding stability dG unfold recorded for the sequence SAGGSMTTPPTGEVQVFIDRKTDKWTIRIVDPNAPPTTEEVESEEEAEKVIAELEAKGYKVDTVEPLPSAGG [r13_727_JUSTAS] 1.14 kcal/mol

Please give measured folding stability dG unfold of the following entry: SAGGMVEREFTLDGTRITITYVPSEGVILATFPDRTVTVPVPESLKDKSPEEVIELAKEFAKEYLESSAGGS [r16_215_JUSTAS] 3.08 kcal/mol

For the sequence SAGGSAMTPVTLEITSEEELEAKIEELAPPGRTVTINVTSTTEKTRVEDDVTRDYTVVTANVTFPPSAGGSA [r15_95_JUSTAS] , give its measured folding stability dG unfold value. 0.573 kcal/mol

For the sequence SSTTPYGDKTVVTTTTPVPGAGKELVTTTTYTFTPDPNSASTSTTATTTTTVTPLPEEAPTPEAVALRRASA [r9_363_JUSTAS] , report folding stability dG unfold. -0.937 kcal/mol

Return folding stability dG unfold (reported value) for this sequence: SAGGSAGGSAGTLKLTLEVTVTRLYRLPDGSGSLVAETVRVRVEVELEVDELDEDGRLLLSAGGSAGGSAGG [r11_558_TrROS_Hall] 3.27 kcal/mol

Quote folding stability dG unfold reported for SAPKNYRFKIYFPNGVEFTIPPGWDLEIEEFDPEDGVIRIKMTRYDKDDGKPVEKHDFPFPFRILEPDPSAG [r14_927_TrROS] please. 1.84 kcal/mol

State its folding stability dG unfold: SAGGSAGGSAKWIYIMLPFPEGQKVEIEYPNGRKHSYEQTPDGMLMIRVRRPNAPIKIKIKSAGGSAGGSAG [r3_334_TrROS] 2.72 kcal/mol

Check the records and state folding stability dG unfold for SAGGSAGGSAGGSMELIPTPEDTVTVVETTPVAPTPNGTPVPATVTTTTLPKEEVEAAASAGGSAGGSAGGS [r4_238_JUSTAS] 1.53 kcal/mol

// Input: SAAKPVVIEVGFDGKPVTVVVYPNPGRVRAYVPATNAVSEATVGEDGEVNLLLYNPADGKPLPANITVPSAG [r14_656_TrMRF] . Output its folding stability dG unfold only. -0.973 kcal/mol

Please report folding stability dG unfold for the following sequence: SAGGSSKLTFKDPNSDGTYSVTYDPSTGKANVTTSNGSSATISFEGDTITLLESSSVPPSPSNPTTSSAGGS [r16_687_JUSTAS] 0.252 kcal/mol

Supply folding stability dG unfold value. Item: SAGGMNVTVTVELVPLPDEPVLFVTVETEDGSVSVITFDPATGTATVLKVSPTKTEITTVPAEDILLASAGG [r13_328_TrMRF] 2.79 kcal/mol

State its folding stability dG unfold for this sequence: SAGGSAGGSAPDNVEIEVYELPAGMYRVKIWPPGGNRHEFNFPPGEPKKIKIPPGVSIEIWPFSAGGSAGGS [r12_517_TrROS] 0.763 kcal/mol

# return recorded folding stability dG unfold for input SAGGSKDLEIKITKIKEWDPPNGKQTIRIPIEVYDPENGKPRPPAEELADELQKRFPGMPIKVEPVSAGGSA [r2_27_TrROS] 0.863 kcal/mol

Specify folding stability dG unfold for SAGGSAGGSAGMLKKSPSPSIITVKIKPPDSDEVKTINIPPDKPEEVEKLREKGLEIEVLSAGGSAGGSAGG [r11_1006_JUSTAS] and stop. -0.178 kcal/mol

Give a short answer stating reported folding stability dG unfold for SAGGSAGGSAGSIKEALKKLKPGDTVEIEITLKDGSKIKIRVKVIRDKKTKKYKVKIEIESAGGSAGGSAGG [r11_343_TrROS_Hall] . 3.84 kcal/mol

Please look at this sequence and report its folding stability dG unfold: SAGGSAMFYLLKVELPDGKVLEIRIEATPEEKEEFVEKIKSHPEVKSVELEPISKEEAEELGFEEISAGGSA [r15_39_TrMRF] 3.27 kcal/mol

Please look at this sequence and report its folding stability dG unfold: SAGGSAGGSAGGMTTVTLTLTTELEVKDPEGKLHRETVTVTVTVPVPPSTLTDTTDLVSSAGGSAGGSAGGS [r10_168_JUSTAS] 2.12 kcal/mol

Give the reported value of folding stability dG unfold for this record: SAGGSMETTTLSSTPAELIATVEAEAAAAGKTISEITVTEDPATGLATVPVTIEITPAPALAPAARRSAGGS [r16_584_JUSTAS] 0.722 kcal/mol

In one line, give reported folding stability dG unfold of the entry SAGEFEVLEVREVDGRLVVRLALPDKPEVVTIVLERHPDGSVRALIEAEGEAADRIVEALPELDEVVVASAG [r5_933_TrMRF] . 2.64 kcal/mol

Provide one value: measured folding stability dG unfold of SAGGSAGGSAGGKIIVYNPETGKPEEVSPEDLEEIIKNTPGPLILKVGEGEIELNAKDISAGGSAGGSAGGS [r10_839_TrMRF] 0.862 kcal/mol

Kindly indicate its recorded folding stability dG unfold. Item: SAGGSLPPGQWIFMIQLEIEPPNGNTWPFNIMVPPDNVEEQAKEIADRLRENGLKVKIEITDVMPVSAGGSA [r2_274_TrROS] 3.5 kcal/mol

Let me know recorded folding stability dG unfold for SAGGSAGGSAGGDLVITEVRVEFDPKDGTLRVTARFELPNTGETVEVTLEFEIPYPDGASAGGSAGGSAGGS [r10_296_TrMRF] , thanks. 2.86 kcal/mol

Tell me folding stability dG unfold reported for SAGGSAGGSAGGSEVEVLDSRPLPDGHHLVLVRFPDGSYALYRIYPDGSVEVEVFSDDGSAGGSAGGSAGGS [r4_483_TrMRF] 4.21 kcal/mol

State its folding stability dG unfold: SAGGSAGGKIAVIPYVPEEDIPPELRELFGKEGSLSPEEFQELFAEAVARELGEEGAIDAVIVESAGGSAGG [r6_654_TrMRF] 0.721 kcal/mol

// Input: SAGGSAGMMATKPVEVEVEIPPDDPEAAKERVEAEIKAAFPGPVEVETTSYDPEKGLLKVKVVIKKSAGGSA [r15_1024_JUSTAS] . Output its folding stability dG unfold only. 0.0964 kcal/mol

Kindly indicate its recorded folding stability dG unfold. Item: SAGGSAGGSAGGMTETVTLTEVGVTTKTAPLPEGPLTTTPTVTVDRVITLPPSSPAALALSAGGSAGGSAGG [r7_889_JUSTAS] -0.257 kcal/mol

Tell me measured folding stability dG unfold for SAGGSAKGKKTRTITIMAPFDNKEEAREQAEEIADNIMNNLPDDMKIKVEVSWNPEDNYVMATIRISAGGSA [r15_981_TrROS] please. 0.842 kcal/mol
